These data points were gathered from patent US20240010721A1.

ASSAY_SYSTEM: ROR1 (antigen of the KD determination and of the Octet dissociation measurement) (UniProt Q01973 30-403, limits assumed)
Sequence (Q01973 30-403 limits assumed): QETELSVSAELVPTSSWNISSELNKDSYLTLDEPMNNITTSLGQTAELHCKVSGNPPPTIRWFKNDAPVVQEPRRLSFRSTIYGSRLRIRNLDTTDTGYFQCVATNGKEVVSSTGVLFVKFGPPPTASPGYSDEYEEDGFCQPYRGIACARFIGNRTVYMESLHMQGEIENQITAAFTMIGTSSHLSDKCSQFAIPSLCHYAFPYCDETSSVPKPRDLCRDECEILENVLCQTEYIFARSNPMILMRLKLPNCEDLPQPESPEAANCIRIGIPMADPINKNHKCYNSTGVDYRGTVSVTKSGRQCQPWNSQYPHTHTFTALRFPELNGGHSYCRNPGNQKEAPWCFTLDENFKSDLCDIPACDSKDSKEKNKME
METHOD_DESCRIPTION: method not stated (conventional procedures)
As shown below, each of these binders has a reported kon value.
Write down the numeric answer in M⁻¹ s⁻¹ and omit the unit.

Examples from the recorded data:
BINDER | MEASUREMENT_KIND | MEASURED_RESULT
PR001362 (antibody, V domains shown, fully human IgG1, kappa) VH: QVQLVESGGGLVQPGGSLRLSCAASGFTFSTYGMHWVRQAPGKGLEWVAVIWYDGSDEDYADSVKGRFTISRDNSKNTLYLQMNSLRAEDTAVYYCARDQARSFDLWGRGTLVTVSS VL: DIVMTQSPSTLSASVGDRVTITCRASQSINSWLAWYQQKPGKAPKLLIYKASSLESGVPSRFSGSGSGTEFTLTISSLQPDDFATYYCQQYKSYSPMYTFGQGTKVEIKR | kon | 300000
PR001357 (antibody, human IgG1, kappa, V domains shown, fully human IgG1, kappa) VH: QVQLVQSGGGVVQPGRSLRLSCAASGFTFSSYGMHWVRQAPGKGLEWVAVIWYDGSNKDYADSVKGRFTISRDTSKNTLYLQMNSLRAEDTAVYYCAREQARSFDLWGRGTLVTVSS VL: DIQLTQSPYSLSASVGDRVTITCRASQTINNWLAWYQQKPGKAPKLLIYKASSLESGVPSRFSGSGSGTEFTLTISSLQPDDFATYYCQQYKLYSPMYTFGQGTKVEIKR | kon | 397000

Record summary for PR001354 (antibody, human IgG1, kappa, V domains shown, fully human IgG1, kappa; also called anti-ROR1 1015M2-C9 hIgG1; PR001354(WT)) VH: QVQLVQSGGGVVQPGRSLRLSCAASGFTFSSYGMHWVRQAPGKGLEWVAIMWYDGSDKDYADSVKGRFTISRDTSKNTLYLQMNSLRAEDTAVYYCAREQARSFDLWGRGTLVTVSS VL: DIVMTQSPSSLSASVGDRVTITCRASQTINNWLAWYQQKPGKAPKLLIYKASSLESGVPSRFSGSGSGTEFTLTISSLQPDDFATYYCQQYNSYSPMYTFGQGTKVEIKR : reported kon = 339000

Record summary for PR001417 (antibody, V domains shown, fully human IgG1, kappa) VH: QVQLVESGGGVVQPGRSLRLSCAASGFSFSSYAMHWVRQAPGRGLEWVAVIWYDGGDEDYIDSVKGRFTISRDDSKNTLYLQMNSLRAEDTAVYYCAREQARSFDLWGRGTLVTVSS VL: DVVMTQSPSTLSASVGDRVTITCRASQSINSWLAWYQQKPGKAPKLLIYKASSLESGVPSRFSGSGSGTEFTLTISSLQPDDFATYYCQQYNSYSPMYTFGQGTKVEIKR : reported kon = 433000
